Target: Potassium voltage-gated channel subfamily A member 5 (Homo sapiens)
Sequence (P22460 whole entry): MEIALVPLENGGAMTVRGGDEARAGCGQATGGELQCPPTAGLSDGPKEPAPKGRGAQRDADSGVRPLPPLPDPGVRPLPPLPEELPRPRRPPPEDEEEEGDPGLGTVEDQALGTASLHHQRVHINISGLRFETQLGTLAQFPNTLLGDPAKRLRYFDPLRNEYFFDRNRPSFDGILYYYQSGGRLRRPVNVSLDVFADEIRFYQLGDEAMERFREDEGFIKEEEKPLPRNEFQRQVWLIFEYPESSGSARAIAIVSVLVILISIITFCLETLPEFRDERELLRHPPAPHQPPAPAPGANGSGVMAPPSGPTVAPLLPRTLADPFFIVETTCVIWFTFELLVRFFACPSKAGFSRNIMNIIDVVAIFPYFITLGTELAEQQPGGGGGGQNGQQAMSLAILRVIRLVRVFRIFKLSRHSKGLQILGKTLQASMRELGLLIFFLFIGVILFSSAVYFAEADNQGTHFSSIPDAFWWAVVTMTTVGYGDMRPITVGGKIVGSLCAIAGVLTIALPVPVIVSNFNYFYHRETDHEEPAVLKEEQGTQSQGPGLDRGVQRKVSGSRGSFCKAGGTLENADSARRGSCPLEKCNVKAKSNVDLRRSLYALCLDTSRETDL
Method: Inhibition of human Kv1.5 channel expressed in mouse L929 cells
Measured Quantity: IC50

> print(dat)
                                   compound  readout.value
1  CC1=C(C(=O)N2CCC[C@H]2c2nc(C)no2)C(c2ccc(Cl)c(Cl)c2)n2nccc2N1 (stereo in doubt; 13b)         160 nM

[ask] Which IC50 value belongs to CC1=C(C(=O)N2CCC[C@H]2c2nnn[nH]2)C(c2ccc(Cl)c(Cl)c2)n2nccc2N1 (stereo in doubt; 14a) ?
[reply] > 1000 nM

[ask] Which IC50 value belongs to CC1=C(C(=O)N2CCC[C@H]2c2nnc(N)s2)C(c2ccc(Cl)c(Cl)c2)n2nccc2N1 (stereo partly drawn) ?
[reply] > 1000 nM

[ask] Which IC50 value belongs to CC1=C(C(=O)N2CCCC2c2ccc(F)cc2)C(c2ccc(Cl)c(Cl)c2)n2nccc2N1 (mixture of isomers; 7b) ?
[reply] 1800 nM

[ask] Which IC50 value belongs to CC1=C(C(=O)N2CCC[C@H]2c2nc(C)no2)C(c2ccc(Cl)c(Cl)c2)n2nccc2N1 (stereo in doubt; 13a) ?
[reply] > 1000 nM

[ask] Which IC50 value belongs to COC[C@H]1CCCN1C(=O)C1=C(C)Nc2ccnn2C1c1ccc(Cl)c(Cl)c1 (stereo partly drawn) ?
[reply] > 1000 nM

[ask] Which IC50 value belongs to CC1=C(C(=O)N2CCC[C@H]2c2cc(C)no2)C(c2ccc(Cl)c(Cl)c2)n2nccc2N1 (stereo in doubt; 20a) ?
[reply] > 1000 nM

[ask] Which IC50 value belongs to CC1=C(C(=O)N2CCCC2c2ccc(F)cc2)C(c2ccc(Cl)c(Cl)c2)n2nccc2N1 (mixture of isomers; 7a) ?
[reply] 2100 nM
